# TARGET_ENTITY: KAT6A Full length enzyme (Homo sapiens (Human))
# Sequence (Q92794 other isoform, or with tags, fused parts or gaps): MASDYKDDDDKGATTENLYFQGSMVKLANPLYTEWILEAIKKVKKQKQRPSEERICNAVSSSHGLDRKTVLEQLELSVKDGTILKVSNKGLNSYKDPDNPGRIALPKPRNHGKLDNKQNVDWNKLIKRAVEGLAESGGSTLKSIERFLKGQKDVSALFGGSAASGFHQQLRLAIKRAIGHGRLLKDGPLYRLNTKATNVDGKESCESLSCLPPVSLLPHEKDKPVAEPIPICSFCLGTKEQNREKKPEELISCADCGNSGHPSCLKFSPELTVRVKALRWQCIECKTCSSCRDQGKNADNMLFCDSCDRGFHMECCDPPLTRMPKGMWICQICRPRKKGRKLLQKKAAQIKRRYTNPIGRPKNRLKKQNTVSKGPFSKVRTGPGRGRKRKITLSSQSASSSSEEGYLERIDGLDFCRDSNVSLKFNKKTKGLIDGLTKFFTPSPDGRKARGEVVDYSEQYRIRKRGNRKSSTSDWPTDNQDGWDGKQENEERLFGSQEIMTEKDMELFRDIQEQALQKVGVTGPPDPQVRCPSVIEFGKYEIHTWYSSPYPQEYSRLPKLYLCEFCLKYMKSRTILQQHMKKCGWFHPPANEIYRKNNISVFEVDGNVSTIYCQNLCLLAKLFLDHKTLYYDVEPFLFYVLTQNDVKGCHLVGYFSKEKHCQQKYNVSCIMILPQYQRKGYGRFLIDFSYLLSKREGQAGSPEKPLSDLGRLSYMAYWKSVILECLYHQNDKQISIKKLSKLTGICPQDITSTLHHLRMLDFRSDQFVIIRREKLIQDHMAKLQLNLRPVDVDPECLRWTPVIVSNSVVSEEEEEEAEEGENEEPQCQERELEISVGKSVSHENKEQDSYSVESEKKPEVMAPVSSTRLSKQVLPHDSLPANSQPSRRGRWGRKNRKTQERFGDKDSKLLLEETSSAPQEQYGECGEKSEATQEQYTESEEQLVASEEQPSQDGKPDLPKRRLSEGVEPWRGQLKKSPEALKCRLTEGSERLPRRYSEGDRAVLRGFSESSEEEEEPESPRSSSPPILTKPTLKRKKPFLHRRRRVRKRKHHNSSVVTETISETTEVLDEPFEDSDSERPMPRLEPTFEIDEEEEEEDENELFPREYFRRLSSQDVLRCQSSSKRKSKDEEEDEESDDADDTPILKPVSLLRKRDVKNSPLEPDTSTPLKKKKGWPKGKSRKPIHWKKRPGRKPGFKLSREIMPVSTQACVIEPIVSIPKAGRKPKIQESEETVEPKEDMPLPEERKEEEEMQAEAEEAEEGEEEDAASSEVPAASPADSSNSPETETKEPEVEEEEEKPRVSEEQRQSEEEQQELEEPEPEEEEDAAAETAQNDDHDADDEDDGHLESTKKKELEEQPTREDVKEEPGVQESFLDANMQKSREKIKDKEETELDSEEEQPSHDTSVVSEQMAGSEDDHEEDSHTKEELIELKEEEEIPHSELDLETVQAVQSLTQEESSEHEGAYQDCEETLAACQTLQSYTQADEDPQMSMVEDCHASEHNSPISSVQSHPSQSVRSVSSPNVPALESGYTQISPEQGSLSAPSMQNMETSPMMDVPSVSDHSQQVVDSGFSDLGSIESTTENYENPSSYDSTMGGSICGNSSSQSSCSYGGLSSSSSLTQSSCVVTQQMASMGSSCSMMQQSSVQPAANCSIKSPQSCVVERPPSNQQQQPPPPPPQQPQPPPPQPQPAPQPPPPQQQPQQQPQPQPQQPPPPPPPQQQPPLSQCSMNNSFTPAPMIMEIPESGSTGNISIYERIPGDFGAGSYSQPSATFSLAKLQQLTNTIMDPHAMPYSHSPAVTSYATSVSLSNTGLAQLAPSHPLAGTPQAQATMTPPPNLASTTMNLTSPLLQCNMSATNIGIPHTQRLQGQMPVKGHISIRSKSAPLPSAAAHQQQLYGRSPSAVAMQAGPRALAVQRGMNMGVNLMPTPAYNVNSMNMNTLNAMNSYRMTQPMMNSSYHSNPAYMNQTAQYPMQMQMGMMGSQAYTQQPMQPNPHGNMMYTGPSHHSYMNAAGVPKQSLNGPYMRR
# ASSAY_NOTES: KAT6A assay (SAMDI-MS acetylation of H3 1-21 peptide)
# Assay type: biochemical
# CONDITION_DESCRIPTION: replicate number in parentheses; read-out: KAT6A Ki (nM) (replicate)
REPORTED_PROPERTY: Ki (nM)
Give the number; nM is assumed, so skip it.

Worked set:
COc1cc2c(NS(=O)(=O)c3c(OC)cc(N4CCN(C)C(=O)C4)cc3OC)noc2cc1Nc1cc(C2CC2)n[nH]1 [Example 254]    0.7
COc1cc2c(NS(=O)(=O)c3c(OC)cc(C(C)OC)cc3OC)noc2cc1Nc1cc(C2CC2)[nH]n1 (single isomer, unassigned) [Example 272]    0.7
COc1cc2c(NS(=O)(=O)c3c(OC)cc(N(C)C4COC4)cc3OC)noc2cc1Nc1cc(C2CC2)n[nH]1 [Example 248]    1.2
COc1cc2c(NS(=O)(=O)c3c(OC)cc(C4CCOC4)cc3OC)noc2cc1Nc1cc(C2CC2)n[nH]1 (single isomer, unassigned) [Example 266]    1.6
COc1cc2c(NS(=O)(=O)c3c(OC)cc(N4CC(OC)C4)cc3OC)noc2cc1Nc1cc(C2CC2)n[nH]1 [Example 253]    0.6

Provide Ki value for the following compound: COc1cc2c(NS(=O)(=O)c3c(OC)cc(C(=O)N4CCC(F)(F)C4)cc3OC)noc2cc1Nc1cc(C2CC2)n[nH]1 [Example 257]
1.6

Provide Ki value for the following compound: COc1cc2c(NS(=O)(=O)c3c(OC)cc(C4CCCOC4)cc3OC)noc2cc1Nc1cc(C2CC2)n[nH]1 (single isomer, unassigned) [Example 269]
0.8
